The following compounds are listed with their measured T/C values.
Test system: L1210 leukemia ip in BDF1 mice, survival T/C
Experiment: NCI In Vivo Anticancer Drug Screen. Data for tumor model L1210 Leukemia (intraperitoneal) in B6D2F1 (BDF1) mice
Details: endpoint: mean survival time; dose: 100.0 mg/kg/injection; schedule: Q01DX001 (ip); vehicle: saline; higher = longer survival
Toxic doses and inconclusive results are not listed.

Please review the entries below; each comes with its answer.
[[record]]
compound = "CC(C)C1SC(=S)NC1=O (stereo unspecified)"
measurement_label = "T/C"
obs_value = "88 % of control"

[[record]]
compound = "CCCNc1ccc(C2=NCCCN2)cc1"
measurement_label = "T/C"
obs_value = "102 % of control"

[[record]]
compound = "C[C@]12C(=O)OC(=O)[C@H]1[C@H]1CC[C@@H]2C1"
measurement_label = "T/C"
obs_value = "110 % of control"

[[record]]
compound = "CCOC(=O)CC(c1ccccc1)C(C(=O)OCC)C(=O)OCC (stereo unspecified)"
measurement_label = "T/C"
obs_value = "106 % of control"

[[record]]
compound = "Cc1ccc(S(=O)(=O)OCCN(CCOS(=O)(=O)c2ccc(C)cc2)c2ccc(F)cc2)cc1"
measurement_label = "T/C"
obs_value = "100 % of control"

[[record]]
compound = "CC(C)C(Sc1nc(N)nc2nc[nH]c12)C(=O)O (stereo unspecified)"
measurement_label = "T/C"
obs_value = "98 % of control"

[[record]]
compound = "Cc1nccn1C"
measurement_label = "T/C"
obs_value = "101 % of control"

[[record]]
compound = "O=C(O)c1cc(Br)cc(Br)c1O"
measurement_label = "T/C"
obs_value = "123 % of control"

[[record]]
compound = "N=C(N)Sc1cnc2ccccc2n1"
measurement_label = "T/C"
obs_value = "95 % of control"

[[record]]
compound = "Nc1nc(N)c(N=O)c(=O)[nH]1"
measurement_label = "T/C"
obs_value = "105 % of control"


Kindly consider the entry below.
compound C1=C(c2ccccc2)CCN(C2(c3ccccc3)CCCCC2)C1 , T/C observed: 101 % of control

Sourced from PubChem BioAssay AID248
